mean nematode size ln(EXT) (ln): recorded values
System: Caenorhabditis elegans N2
Experiment: mean nematode size ln(EXT) after 48 h, plate-adjusted (DMSO control set to 6) (ln(EXT), control-adjusted); higher = larger nematodes / less growth inhibition
Conditions: 1 µM; exposure time 48 h
Structures can show the parent of a compound that is named as a salt.

>>> result("CCCCCCOC(=O)c1ccccc1C(=O)OCCCCCC [Dihexyl phthalate]")
5.83

# compound CCCCCCC(C)OC(=O)COc1nc(F)c(Cl)c(N)c1Cl (stereo not given) ; its mean nematode size ln(EXT) (ln) = 5.84

# compound C=CN1CCCC1=O ; its mean nematode size ln(EXT) (ln) = 5.85

# compound C#CCC1=C(C)C(OC(=O)C2C(C=C(C)C)C2(C)C)CC1=O (stereo not given) ; its mean nematode size ln(EXT) (ln) = 6.08

# compound Cc1c2ccccc2c(C)c2c1ccc1ccccc12 ; its mean nematode size ln(EXT) (ln) = 5.87

# compound Cc1cccc(N)c1 ; its mean nematode size ln(EXT) (ln) = 5.86

# compound COc1cc(OC)nc(Sc2cccc(Cl)c2C(=O)O)n1 [Pyrithiobac-sodium] ; its mean nematode size ln(EXT) (ln) = 6

# compound COC(=O)N(OC)c1ccccc1COc1ccn(-c2ccc(Cl)cc2)n1 ; its mean nematode size ln(EXT) (ln) = 5.89

# compound CCCC(CCC)C(=O)O ; its mean nematode size ln(EXT) (ln) = 5.92

# compound CCOC(=O)CC(O)(CC(=O)OCC)C(=O)OCC [Triethyl citrate] ; its mean nematode size ln(EXT) (ln) = 5.99

----------
System: Caenorhabditis elegans N2
Assay: mean nematode size ln(EXT) after 48 h, plate-adjusted (DMSO control set to 6) (ln(EXT), control-adjusted); higher = larger nematodes / less growth inhibition
Conditions: 10 µM; exposure time 48 h
Property Label: mean nematode size ln(EXT) (ln)
# respond with the number and nothing more

Past entries and their recorded results:
>>> quantitative_result("CCCCN(CC)c1c([N+](=O)[O-])cc(C(F)(F)F)cc1[N+](=O)[O-]")
5.7
>>> quantitative_result("CCCCCCCCCCCCCN1CC(C)OC(C)C1 (configuration not stated)")
5.85
>>> quantitative_result("COC(=O)c1ccc(I)cc1S(=O)(=O)NC(=O)Nc1nc(C)nc(OC)n1 [Iodosulfuron-methyl-sodium]")
6.04
>>> quantitative_result("CCCCOC(=O)CCCCC(=O)OCCCC [Dibutyl hexanedioate]")
5.76
>>> quantitative_result("Cc1ccc(C)c(O)c1")
5.83

# compound Cc1nn(C)c(Oc2ccccc2)c1C=NOCc1ccc(C(=O)OC(C)(C)C)cc1 [(Z,E)-Fenpyroximate] ; its mean nematode size ln(EXT) (ln) = 4.2

# compound CC[C@H]1OC(=O)[C@H](C)[C@@H](O[C@H]2C[C@@](C)(OC)[C@@H](O)[C@H](C)O2)[C@H](C)[C@@H](O[C@@H]2O[C@H](C)C[C@H](N(C)C)[C@H]2O)[C@](C)(O)C[C@@H](C)C(=O)[C@H](C)[C@@H](O)[C@]1(C)O ; its mean nematode size ln(EXT) (ln) = 5.9

----------
Tested on: Caenorhabditis elegans N2
Assay: mean nematode size ln(EXT) after 48 h, plate-adjusted (DMSO control set to 6) (ln(EXT), control-adjusted); higher = larger nematodes / less growth inhibition
Details: 200 µM; exposure time 48 h
Property Label: mean nematode size ln(EXT) (ln)
# respond with the number and nothing more

>>> quantitative_result("COc1ccc2c(c1)c(CC(=O)O)c(C)n2C(=O)c1ccc(Cl)cc1")
5.83

# molecule OCC(CO)(CBr)CBr ; its mean nematode size ln(EXT) (ln) = 5.64

# molecule CCOc1ccc2c(c1)C(C)=CC(C)(C)N2 ; its mean nematode size ln(EXT) (ln) = 5.17

# molecule CC(Cl)(Cl)C(=O)O ; its mean nematode size ln(EXT) (ln) = 5.79

----------
Test system: Caenorhabditis elegans N2
Test: AC50 for larval growth inhibition (Hill fit); higher = less potent
Settings: exposure time 48 h
Property Label: AC50 for larval growth inhibition (µM)
Report the figure in µM without appending any unit label.

Past entries and their recorded results:
>>> quantitative_result("ClC1=C(Cl)[C@]2(Cl)[C@@H]3[C@@H](Cl)[C@H]4O[C@H]4[C@@H]3[C@@]1(Cl)C2(Cl)Cl (single isomer, unassigned; isomer b) [Heptachlor epoxide, isomer B]")
7.71
>>> quantitative_result("O=C(O)C1(c2ccc3c(c2)OC[C@H](Cc2ccc(-c4ccccc4)cc2)[C@H]3O)CCCC1")
52.8

Considering c1ccc2c(c1)ccc1ccccc12 , its AC50 for larval growth inhibition with Caenorhabditis elegans N2 was recorded as 5.56

Considering CN(C[C@@H](CC[N+]12CCC(C3CCCCC3)(CC1)CC2)c1ccc(Cl)c(Cl)c1)C(=O)c1cc(C(F)(F)F)cc(C(F)(F)F)c1 , its AC50 for larval growth inhibition with Caenorhabditis elegans N2 was recorded as 22.8

Considering Cc1cc(N=Nc2ccccc2C)ccc1N , its AC50 for larval growth inhibition with Caenorhabditis elegans N2 was recorded as 14.9

Considering NC(=O)N(O)[C@@H]1C=C[C@H](Oc2cccc(Oc3ccc(F)cc3)c2)C1 , its AC50 for larval growth inhibition with Caenorhabditis elegans N2 was recorded as 72.9

Considering CC(C)OC(=O)C(C)(C)Oc1ccc(C(=O)c2ccc(Cl)cc2)cc1 [Fenofibrate] , its AC50 for larval growth inhibition with Caenorhabditis elegans N2 was recorded as 121

----------
lowest effective concentration: recorded values
Tested on: Caenorhabditis elegans N2
Assay: lowest effective concentration for larval growth inhibition (size below effect threshold); higher = less potent
Conditions: exposure time 48 h
Report the figure in µM without appending any unit label.

>>> quantitative_result("CCCCSP(=O)(SCCCC)SCCCC")
5
>>> quantitative_result("CC(=O)[C@H]1CC[C@H]2[C@@H]3CCC4=CC(=O)CC[C@]4(C)[C@H]3CC[C@]12C")
200
>>> quantitative_result("CCN(CC)c1ccccc1")
200
>>> quantitative_result("Clc1cc(Cl)c2c(c1)N=C1CCCCCN1C2")
100
>>> quantitative_result("COc1ccc(S(=O)(=O)N2C(=O)[C@@](c3ccccc3OC)(N3C[C@H](O)C[C@H]3C(=O)N(C)C)c3cc(Cl)ccc32)c(OC)c1")
100
>>> quantitative_result("CCNP(=S)(OC)O/C(C)=C/C(=O)OC(C)C (stereo not given)")
50

# compound CCOC(=O)CC(SP(=S)(OC)OC)C(=O)OCC (stereo not given) ; its lowest effective concentration = 100

# compound CS/C(C)=N\OC(=O)N(C)SN(C)C(=O)O/N=C(\C)SC ; its lowest effective concentration = 5

# compound COP(=O)(OC)SCn1c(=O)oc2cc(Cl)cnc21 ; its lowest effective concentration = 200

# compound CCCN(CCC)c1c([N+](=O)[O-])cc(C(F)(F)F)cc1[N+](=O)[O-] ; its lowest effective concentration = 200

# compound CC1(C)C(=O)N(Br)C(=O)N1Br ; its lowest effective concentration = 200

----------
Tested on: Caenorhabditis elegans N2
Experiment: lowest effective concentration for larval growth inhibition (size below effect threshold); higher = less potent
Conditions: exposure time 48 h
lowest effective concentration: recorded values
Report the figure in µM without appending any unit label.

>>> quantitative_result("CCN(CC)C(=S)SSC(=S)N(CC)CC")
100

# molecule CCc1cccc(CC)c1N(COC)C(=O)CCl ; its lowest effective concentration = 200

# molecule Cc1ccc(C(C)(C)C)c(O)c1 ; its lowest effective concentration = 200

# molecule C[N+](C)(C)CC1CO1 (stereo not given) [Oxiranemethanaminium, N,N,N-trimethyl-, chloride] ; its lowest effective concentration = 200

# molecule Nc1ccccc1N ; its lowest effective concentration = 50

----------
mean nematode size ln(EXT) (ln): recorded values
Test system: Caenorhabditis elegans N2
Assay: mean nematode size ln(EXT) after 48 h, plate-adjusted (DMSO control set to 6) (ln(EXT), control-adjusted); higher = larger nematodes / less growth inhibition
Settings: 5 µM; exposure time 48 h
# respond with the number and nothing more

Past entries and their recorded results:
>>> quantitative_result("CN(C)C(=O)Nc1ccc(Cl)c(Cl)c1")
6.24
>>> quantitative_result("Nc1cccc(N)c1")
5.87
>>> quantitative_result("C[N+]1(C)CCCCC1 [Mepiquat chloride]")
6
>>> quantitative_result("CCOC(=O)C(Cl)Cc1cc(-n2nc(C)n(C(F)F)c2=O)c(F)cc1Cl (configuration not stated)")
6.04
>>> quantitative_result("ClC1=C(Cl)C2(Cl)C3C(Cl)C=CC3C1(Cl)C2(Cl)Cl (configuration not stated)")
5.24

Moving on to another compound below.
# compound CCCC(=O)O ; its mean nematode size ln(EXT) (ln) = 5.86

----------
AC50 for larval growth inhibition: recorded values
Test system: Caenorhabditis elegans N2
Assay: AC50 for larval growth inhibition (Hill fit); higher = less potent
Settings: exposure time 48 h

Past entries and their recorded results:
>>> result("CCCCC(C#N)(Cn1cncn1)c1ccc(Cl)cc1 (stereo not given)")
"> 200 µM"
>>> result("COP(=S)(OC)Oc1ccc([N+](=O)[O-])c(C)c1")
"37 µM"
>>> result("Cc1cc(CCN2CCN(c3nsc4ccccc34)CC2)cc2c1NC(=O)CC2(C)C")
"41.3 µM"

# compound NC(=Nc1ccccc1)Nc1ccccc1 ; its AC50 for larval growth inhibition = 16.6 µM

# compound c1ccc2[nH]c(-c3cscn3)nc2c1 ; its AC50 for larval growth inhibition = > 200 µM

# compound CON(C)C(=O)Nc1ccc(Cl)c(Cl)c1 ; its AC50 for larval growth inhibition = 104 µM
